# measurement-description: Phase I pharmacokinetic profile: blood concentration vs time by HPLC-MS/MS after a single 10 mg/kg dose
# Type: in vivo, C57BL/6Crl mice
# measurement-parameters: male, C57BL/6Crl, mouse, whole blood, iv, 10 mg/kg; i.v., males; read-out: C at 10 min (blood concentration 10 min post-administration)
measured-parameter: concentration at 10 min

CCCCCc1cc(O)c(C/C=C(\C)CCC=C(C)C)c(O)c1: 2840 ng/mL

Attribution: paper PMC12722920
